target: 3-hydroxyacyl-CoA dehydrogenase type-2 (Homo sapiens) (UniProt Q99714); experiment: qHTS Assay for Inhibitors of HSD17B4, hydroxysteroid (17-beta) dehydrogenase 4; settings: recombinant HSD17B10, NADH fluorescence kinetic; series mostly up to 57.1 µM;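 note: the protocol describes HADH2 (HSD17B10) and not the HSD17B4 of the title; nearly all actives have a fitted effect of over 70% in size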
Out of some 75,000 compounds screened, about 5,700 (7.6%) were called active. Not shown: some 7% with an inconclusive outcome. Calls come from the whole dose curve; as a rule, active = well fitted inhibition curve with a large enough effect; inconclusive = small, poorly fitted or top-dose-only effect; inactive = no such curve, though single readings can be large or run the other way. What follows is part of a selection rich in actives, with near analogues and random picks from the rest.
// allowed return values: active, inactive

Answered cases to consult:
COc1ccccc1CCn1c(=O)c(-c2cn(C)c3ccccc23)nc2cncnc21 ... inactive
CCOc1ccccc1C1C(C(=O)OC)=CN(C)C=C1C(=O)OC ... active

Input line: Which outcome did this test record for the compound COCCn1c(CN2CCC(Cc3ccccc3)CC2)nc2c1c(=O)n(C)c(=O)n2C ?
Output line: inactive

Input line: Which outcome did this test record for the compound COC(=O)C1=CN(C)C=C(C(=O)OC)C1c1ccc(Cl)cc1Cl ?
Output line: active

Input line: Which outcome did this test record for the compound CCOc1ccccc1N(CC(=O)Nc1ccccc1C(=O)OC)S(C)(=O)=O ?
Output line: inactive

----------
biological target: 3-hydroxyacyl-CoA dehydrogenase type-2 (Homo sapiens); assay: qHTS Assay for Inhibitors of HSD17B4, hydroxysteroid (17-beta) dehydrogenase 4; details: recombinant HSD17B10, NADH fluorescence kinetic; series mostly up to 57.1 µM;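 note: the protocol describes HADH2 (HSD17B10) and not the HSD17B4 of the title; nearly all actives have a fitted effect of over 70% in size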
The whole screen tested about 75,000 compounds, of which about 5,700 (7.6%) were called active. Roughly 7% stayed inconclusive and do not appear here. Calls follow the shape of the dose curve; as a rule, active = well fitted inhibition curve with a large enough effect; inconclusive = small, poorly fitted or top-dose-only effect; inactive = no such curve, though single readings can be large or run the other way. The sample as a whole holds a higher share of actives than the screen did.
// allowed return values: active, inactive

Answered cases to consult:
CC1=C(C(=O)OCc2ccccc2)C(c2ccc(C(F)(F)F)cc2)NC(=O)N1CCCCCC(=O)O (stereo unspecified) ... inactive
CCC(=O)N(Cc1cc2cc(OC)ccc2[nH]c1=O)c1ccccc1C ... active
COc1ccc2[nH]c(=O)c(CN(Cc3nnnn3CCc3ccccc3)CC3CCCO3)cc2c1 (stereo unspecified) ... active
CCOc1ccc2[nH]c(=O)c(CN(CCCO)C(C)=O)cc2c1 ... active

Input line: Which outcome did this test record for the compound C=C(C)C1CC=C(CO)CC1 (stereo unspecified) ?
Output line: inactive

Input line: Which outcome did this test record for the compound O=C(O)CCC(=O)N(Cc1ccco1)c1nc(-c2ccccc2)cs1 ?
Output line: inactive

Input line: Which outcome did this test record for the compound COc1ccc(N(Cc2cc3cc(OC)ccc3[nH]c2=O)S(C)(=O)=O)cc1 ?
Output line: inactive

Input line: Which outcome did this test record for the compound Cc1cc(C)c2cc(CN(Cc3cccs3)Cc3nnnn3CC3CCCO3)c(=O)[nH]c2c1 (stereo unspecified) ?
Output line: inactive

Input line: Which outcome did this test record for the compound Cc1ccc2[nH]c(=O)c(COC(=O)c3ccccn3)cc2c1 ?
Output line: inactive

Input line: Which outcome did this test record for the compound COc1ccc2[nH]cc(CCNc3nc(-c4cccc(NS(C)(=O)=O)c4)nc4ccccc34)c2c1 ?
Output line: inactive

Input line: Which outcome did this test record for the compound COc1ccc(OC)c(Nc2nc(-c3ccc(O)c(O)c3)cs2)c1 ?
Output line: active

----------
target: 3-hydroxyacyl-CoA dehydrogenase type-2 (Homo sapiens); assay: qHTS Assay for Inhibitors of HSD17B4, hydroxysteroid (17-beta) dehydrogenase 4; conditions: recombinant HSD17B10, NADH fluorescence kinetic; series mostly up to 57.1 µM;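 note: the protocol describes HADH2 (HSD17B10) and not the HSD17B4 of the title; nearly all actives have a fitted effect of over 70% in size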
The whole screen tested about 75,000 compounds, of which about 5,700 (7.6%) were called active. Another 7% or so got no clear call; they are omitted. The call rests on the fitted dose curve; in most records, active means well fitted inhibition curve with a large enough effect; inconclusive means small, poorly fitted or top-dose-only effect; inactive means no such curve, though single readings can be large or run the other way. The entries come from a sample that favours actives as a whole.
// allowed return values: Yes = active, No = inactive

Answered cases to consult:
COc1ccccc1CNc1ncnc2ccc(-c3c(C)noc3C)cc12 ... No
CCCOC(=O)c1[nH]c2c(c1C)C(=O)CC(c1cc(OC)c(OC)c(OC)c1)C2 (stereo not drawn) ... No
Cc1sc2c(c1C)c(=O)n(-c1ccccc1)c1nncn21 ... No

Input line: Which outcome did this test record for the molecule C=CC(=C)CCC=C(C)C ?
Output line: No

Input line: Which outcome did this test record for the molecule C/C(Cl)=C\Cn1c(Nc2cccc(C)c2)nc2c1c(=O)n(C)c(=O)n2C ?
Output line: No

Input line: Which outcome did this test record for the molecule CCC[C@@H]1C[C@@]1(CCC)[C@@H](NC(=O)c1ccccc1)c1ccc(C(=O)OC)cc1 ?
Output line: No

Input line: Which outcome did this test record for the molecule COc1ccc(C(=O)N2CCC3(CC2)CCN(c2ccccn2)CC3)cc1 ?
Output line: Yes

Input line: Which outcome did this test record for the molecule Fc1ccc2nc(Nc3nc4c(s3)CCCC4)sc2c1 ?
Output line: Yes

Input line: Which outcome did this test record for the molecule Cc1ccc(S(=O)(=O)N2CC(=O)Nc3ccccc32)cc1C ?
Output line: No

Input line: Which outcome did this test record for the molecule CCC(C)(C(=O)NC1CCCC1)N(C(=O)CNC(C)=O)c1ccc(C)cc1 (stereo not drawn) ?
Output line: No

Input line: Which outcome did this test record for the molecule O=C(c1cc(C(F)(F)F)cc(C(F)(F)F)c1)N1CCC2(CCCN(c3ccccn3)C2)CC1 ?
Output line: No

Input line: Which outcome did this test record for the molecule O=S(=O)(c1ccccc1)N1CCC2(CC1)CN(Cc1nccs1)C2 ?
Output line: No

Input line: Which outcome did this test record for the molecule Cc1ccc(S(=O)(=O)C(C#N)c2nc3ccccc3nc2N2CCCC2)cc1C (stereo not drawn) ?
Output line: Yes

Input line: Which outcome did this test record for the molecule CCCCNC(=O)CSc1nccn1Cc1ccccc1 ?
Output line: No

Input line: Which outcome did this test record for the molecule COC(=O)c1ccc(C23CC4(C2)[C@H](CN(Cc2cccnc2)[C@@H]4c2ccccc2)C3c2ccc(Cl)nc2)cc1 (stereo partly drawn) ?
Output line: No

Input line: Which outcome did this test record for the molecule Cc1cc(C(=O)COC(=O)CCCN2C(=O)c3ccccc3C2=O)c(C)n1C ?
Output line: No

Input line: Which outcome did this test record for the molecule CC(C(=O)N1CCOCC1)N1c2cccc3cccc(c23)S1(=O)=O (stereo not drawn) ?
Output line: Yes
